Test: Selectivity index, ratio of CC50 for cytotoxicity against dog MDCK cells to IC50 for anti-viral activity against Influenza A virus (A/Puerto Rico/8/34 infected in MDCK cells
Type: toxicity, cell-based
Details: read-out: Selectivity Index
Overview of recorded selectivity ratio for various compounds
ASSAY ENDPOINT: selectivity ratio

>>> observed("COc1ccc(-c2ccc3c(Cc4c(O)c(C)cc(C(C)=O)c4O)c(Cc4c(O)c(C)cc(C(C)=O)c4O)[nH]c3c2)cc1OC")
12.2
>>> observed("CC(=O)c1cc(C)c(O)c(Cc2[nH]c3ccc(-c4cc(C)cc(C)c4)cc3c2Cc2c(O)c(C)cc(C(C)=O)c2O)c1O")
"> 22.2"
>>> observed("CC(=O)c1cc(C)c(O)c(Cc2[nH]c3cc(-c4ccc(C(F)(F)F)cc4)ccc3c2Cc2c(O)c(C)cc(C(C)=O)c2O)c1O")
"> 12"
>>> observed("CSc1ccc(-c2ccc3[nH]c(Cc4c(O)c(C)cc(C(C)=O)c4O)c(Cc4c(O)c(C)cc(C(C)=O)c4O)c3c2)cc1")
"> 17.1"
>>> observed("CSc1ccc(-c2ccc3c(Cc4c(O)c(C)cc(C(C)=O)c4O)c(Cc4c(O)c(C)cc(C(C)=O)c4O)[nH]c3c2)cc1")
"> 33"
>>> observed("CC(=O)c1cc(C)c(O)c(Cc2[nH]c3ccc(-c4ccc(C(F)(F)F)cc4)cc3c2Cc2c(O)c(C)cc(C(C)=O)c2O)c1O")
"> 13.7"
>>> observed("CC(=O)c1cc(C)c(O)c(Cc2[nH]c3ccc(-c4c5ccccc5cc5ccccc45)cc3c2Cc2c(O)c(C)cc(C(C)=O)c2O)c1O")
"> 44.8"
>>> observed("CC(=O)c1cc(C)c(O)c(Cc2[nH]c3cc(-c4ccc5ccccc5c4)ccc3c2Cc2c(O)c(C)cc(C(C)=O)c2O)c1O")
"> 11.5"
